assay: qHTS for Inhibitors of human tyrosyl-DNA phosphodiesterase 1 (TDP1): qHTS in cells in absence of CPT; settings: DT40 Tdp1-/- hTDP1 cells, no CPT, ATP luminescence, 48 h; also: nearly all actives have a fitted effect of over 55% in size
About 64,000 (15%) of roughly 420,000 compounds were called active. Inconclusive results (about 27%) are left out. Calls follow the shape of the dose curve; as a rule, active = well fitted inhibition curve with a large enough effect; inconclusive = small, poorly fitted or top-dose-only effect; inactive = flat fitted curve, though single readings scatter. Only a sample is shown.
Classes used: T for active, F for inactive

# molecule, category-label
rows = [
    ("O=C1CC(c2ccccc2)C(c2ccccc2)=NN1 (stereo not drawn)", "F"),
    ("C[C@H]1CN([C@@H](C)CO)C(=O)CCCn2cc(nn2)CO[C@@H]1CN(C)S(=O)(=O)c1cccc(C#N)c1", "F"),
    ("O=C1NS(=O)(=O)c2ccccc21", "F"),
    ("C#CCN(N(C)c1ncc(C(F)(F)F)cc1Cl)S(=O)(=O)c1ccc2ccccc2c1", "F"),
    ("COc1cc(NC(=O)CCS(=O)(=O)c2ccc3c(c2)oc(=O)n3C)cc(OC)c1", "F"),
    ("COc1ccc2occ(C(=O)c3ccc(N=C(C)N(C)C)cc3)c2c1", "T"),
    ("COc1ccccc1NC(=O)/C=C/C(N)=O", "T"),
    ("COc1ccc(OC)c(C(=O)c2ccc(C(=O)O)cc2)c1", "F"),
    ("COc1ccc2c(CC(=O)NNC(=O)c3ccccc3F)coc2c1", "F"),
    ("O=C(N/N=C\\c1cccc(Br)c1)c1ccccc1-n1cccc1", "F"),
    ("COc1ccccc1C1/C(=C(/O)c2ccc(C)cc2)C(=O)C(=O)N1Cc1ccco1 (stereo not drawn)", "F"),
    ("CCc1ccccc1NC(=O)CSc1nnc(CCNC(=O)OC(C)(C)C)o1", "F"),
    ("COc1ccc(C(=O)COC(=O)CCCC(=O)Nc2cc(C(F)(F)F)ccc2Cl)cc1", "F"),
    ("COc1ccccc1NC(=O)C[n+]1ccccc1", "F"),
    ("COCCNC(=S)N(Cc1cccnc1)Cc1ccc(OC)c(OC)c1", "F"),
    ("COc1cc2c(cc1OC)/C(=C/C(=O)c1ccc(NC(C)=O)cc1)NCC2", "F"),
    ("O=C(Nc1ccccc1-c1ccccc1)c1ccccc1[N+](=O)[O-]", "F"),
    ("CSc1nc(C)nc2c1c(=O)n(C)c(=O)n2C", "F"),
    ("CC(C)(C)C(=O)NC1CC2CCCC(C1)N2C(=O)Nc1ccccc1F (stereo not drawn)", "F"),
    ("CSc1nnc2c(n1)OC(c1cn(C)c3ccccc13)N(C(C)=O)c1ccccc1-2 (stereo not drawn)", "F"),
    ("O=C(NCC(O)c1ccc([N+](=O)[O-])cc1)C1CCCCC1 (stereo not drawn)", "F"),
    ("COc1cc(C2CC(=O)N3CN(Cc4ccccc4)CSC3=C2C#N)ccc1OCc1ccccc1 (stereo not drawn)", "F"),
    ("Cc1cccc(CCNS(=O)(=O)c2ccc3c(c2)NC(=O)CO3)c1", "F"),
]

----------
experiment: qHTS for Inhibitors of human tyrosyl-DNA phosphodiesterase 1 (TDP1): qHTS in cells in absence of CPT; conditions: DT40 Tdp1-/- hTDP1 cells, no CPT, ATP luminescence, 48 h; also: nearly all actives have a fitted effect of over 55% in size
Hit rate of the full screen: of about 420,000 compounds, about 64,000 (15%) were called active. Another 27% or so got no clear call; they are omitted. The call rests on the fitted dose curve; in most records, active means well fitted inhibition curve with a large enough effect; inconclusive means small, poorly fitted or top-dose-only effect; inactive means flat fitted curve, though single readings scatter. Only a sample is shown.
Outcome codes: active, inactive

# compound, category-label
data = [
    ("O=C(CSc1nc(-c2cccc(F)c2)[nH]c1-c1ccccc1)Nc1ccc2c(c1)OCO2", "active"),
    ("COc1ccc(CCN(C)CCN2C(=O)c3ccccc3C2=O)cc1OC", "inactive"),
    ("O=C1CCC/C(=N\\NC(=O)NC2CCCCC2)C1", "inactive"),
    ("COc1ccc(C=C2CCC3C(CCCC34OCCO4)C2=O)cc1 (centres undefined)", "active"),
    ("O=C(Nc1nnc(-c2ccc(F)cc2)s1)c1c(F)cccc1Cl", "inactive"),
    ("Cc1ccccc1CSc1nc(-c2ccccc2)nc2c1Cc1c(CO)cnc(C)c1O2", "inactive"),
    ("Cc1ccc(CNC(=O)C(=O)c2cn(CC(=O)N3CCOCC3)c3ccccc23)cc1", "inactive"),
    ("C=C(Cl)COC(=O)C1C2C=CC(C2)C1C(=O)O (centres undefined)", "inactive"),
    ("CC(=O)c1sc(NC(=O)CCN2C(=O)C3CC=CCC3C2=O)nc1-c1ccccc1 (centres undefined)", "inactive"),
    ("CCOc1ccc(OCC)c(NC(=O)CN(c2ccc(C)cc2)S(=O)(=O)c2c(C)n[nH]c2C)c1", "active"),
    ("COC(=O)Cn1c(=NC(=O)c2cc(OC)c(OC)c(OC)c2)sc2cc(OC)ccc21", "inactive"),
    ("COC(=O)C[C@H]1C=C[C@H](NC(=O)c2ccc(F)cc2)[C@@H](CO)O1", "inactive"),
    ("Cc1c(C(=O)N2CCCC2)c(S(=O)(=O)NCC(C)c2ccccc2)c(C)n1C (centres undefined)", "inactive"),
    ("O=C(Cn1ccc(=O)[nH]c1=O)Nc1ccc(C(=O)O)c(O)c1", "inactive"),
    ("CC(C)c1ccc(S(=O)(=O)N2CCC3(CC2)OCCO3)cc1", "inactive"),
    ("O=C(CSc1nc(C2CC2)nc2ccccc12)Nc1cccc(O)c1", "inactive"),
    ("O=C(Nc1cnccn1)c1cccnc1", "inactive"),
    ("CC(=O)/C(=N\\Nc1ccc(Cl)cc1Cl)Sc1cccc2cccnc12", "active"),
    ("CCCCn1c(N)c(N(CCOC)C(=O)c2cccc(OCc3ccccc3)c2)c(=O)[nH]c1=O", "inactive"),
    ("CC(CNS(=O)(=O)c1ccc(Br)cc1)CN(C)C (centres undefined)", "inactive"),
    ("COc1ccc(COC(=O)N/N=C(\\C)CC(=O)Nc2ccc(Cl)cc2)cc1", "inactive"),
    ("COC(=O)CSc1nc(C2CC2)nc2ccccc12", "inactive"),
    ("CC(C)Oc1ccc(NC(=O)c2cc3ccccc3o2)cc1", "inactive"),
    ("CCC(C)CCN1CCN=C1N(C)C (centres undefined)", "inactive"),
    ("CC1(C)Cc2cccc(OCC(N)=O)c2O1", "inactive"),
    ("Cc1cc(S(=O)(=O)N2CCOCC2)ccc1OCC(=O)N1CCOCC1", "inactive"),
    ("O=C(CSc1nnc(-c2ccccn2)n1-c1ccccc1)Nc1ccc2c(c1)OCO2", "inactive"),
    ("COc1ccc(C(=O)OCC(=O)Nc2cccc(C(C)=O)c2)cc1OC", "inactive"),
    ("CN(C(=O)CSc1nc(C2CC2)nc2ccccc12)c1nc(-c2ccccc2)cs1", "active"),
    ("O=C(CN1CCN(CC(=O)Nc2ccc3c(c2)OCO3)CC1)Nc1ccc(F)cc1", "inactive"),
    ("Cc1cc(C(=O)COc2ccccc2[N+](=O)[O-])c(C)n1-c1cccc(S(=O)(=O)N2CCOCC2)c1", "active"),
    ("CC(=O)N1CCC2(CCCN(Cc3ccc(C#N)cc3)C2)CC1", "inactive"),
    ("O=C(O)Cc1ccc(NCc2ccccc2Cl)cc1", "inactive"),
    ("COC(=O)c1ccc(NC(=O)CN(c2ccc(C)cc2)S(=O)(=O)c2c(C)n[nH]c2C)cc1", "inactive"),
    ("Cc1ccc(NC(=O)c2cc3ccccc3o2)cc1", "inactive"),
    ("COc1ccc(N(CC(=O)Nc2cc(OC)ccc2OC)S(=O)(=O)c2c(C)noc2C)cc1", "active"),
    ("CCCCN1C(=O)c2[nH]nc(-c3ccccc3O)c2C1c1cccc(OCc2ccccc2)c1 (centres undefined)", "active"),
    ("C=CCO/N=C(\\C)c1c(O)c(C)c(-c2ccccc2)n(-c2ccccc2)c1=O", "inactive"),
    ("CCOc1ccc(N(CC(=O)Nc2ccccc2F)S(=O)(=O)c2c(C)[nH]c(=O)[nH]c2=O)cc1", "inactive"),
    ("CC(=O)C1C(c2cccc(Oc3ccccc3)c2)NC(=O)NC1(O)C(F)(F)F (centres undefined)", "inactive"),
    ("Cc1cnc(CN(C)C(=O)CC2C(=O)NCCN2Cc2cccc(F)c2F)[nH]1 (centres undefined)", "inactive"),
    ("O=C(CSc1ncn[nH]1)Nc1nsc(-c2ccccc2)n1", "inactive"),
    ("CC(C)(CNC(=O)c1cc(=O)[nH]c2ccccc12)N1CCOCC1", "inactive"),
    ("O=C(NCc1ccccc1Cl)C1CCC(CNc2c(N3CCCCC3)c(=O)c2=O)CC1 (centres undefined)", "inactive"),
]

----------
experiment: qHTS for Inhibitors of human tyrosyl-DNA phosphodiesterase 1 (TDP1): qHTS in cells in absence of CPT; settings: DT40 Tdp1-/- hTDP1 cells, no CPT, ATP luminescence, 48 h; also: nearly all actives have a fitted effect of over 55% in size
The whole screen tested about 420,000 compounds, of which about 64,000 (15%) were called active. Not shown: some 27% with an inconclusive outcome. Calls come from the whole dose curve; as a rule, active = well fitted inhibition curve with a large enough effect; inconclusive = small, poorly fitted or top-dose-only effect; inactive = flat fitted curve, though single readings scatter. These entries were drawn from the full list.
Outcome codes: active, inactive

# compound, category-label
rows = [
    ("CC1CCN(CCCNC(=O)CN2C(=O)CSc3ccc(S(=O)(=O)N4CCCCC4)cc32)CC1", "inactive"),
    ("CC(=O)Nc1ccc(NC(=O)CN2C(=O)COc3ccc(S(=O)(=O)N4CCCCC4)cc32)cc1", "inactive"),
    ("Cc1ccc(S(=O)(=O)N2CCCC2C(=O)NCc2ccco2)cc1 (stereo not given)", "inactive"),
    ("O=C(NCCC1CCCCN1S(=O)(=O)c1ccccc1)C(=O)NCC1CCCO1 (stereo not given)", "inactive"),
    ("O=C(NCCC1CCCCN1S(=O)(=O)c1ccc(Cl)cc1)C(=O)NCc1ccco1 (stereo not given)", "active"),
    ("Cc1ccc(C)c(N2CCN(C(=O)CN3C(=O)COc4ccc(S(=O)(=O)N5CCCCCC5)cc43)CC2)c1", "active"),
    ("Cc1[nH]c2ccccc2c1-c1ccc(Cl)nn1", "inactive"),
    ("CC1CCN(S(=O)(=O)c2ccc3c(c2)N(CC(=O)NCCc2ccccc2)C(=O)CO3)CC1", "active"),
    ("Cc1ccc(CCNC(=O)CN2C(=O)CSc3ccc(S(=O)(=O)N4CCOCC4)cc32)cc1", "active"),
    ("Cc1ccc2c(c1)N(CC(=O)N1CCOCC1)C(=O)CO2", "inactive"),
]
